- system-under-test: Sodium-dependent dopamine transporter (Rattus norvegicus, UniProt P23977)
- Sequence (P23977 whole entry): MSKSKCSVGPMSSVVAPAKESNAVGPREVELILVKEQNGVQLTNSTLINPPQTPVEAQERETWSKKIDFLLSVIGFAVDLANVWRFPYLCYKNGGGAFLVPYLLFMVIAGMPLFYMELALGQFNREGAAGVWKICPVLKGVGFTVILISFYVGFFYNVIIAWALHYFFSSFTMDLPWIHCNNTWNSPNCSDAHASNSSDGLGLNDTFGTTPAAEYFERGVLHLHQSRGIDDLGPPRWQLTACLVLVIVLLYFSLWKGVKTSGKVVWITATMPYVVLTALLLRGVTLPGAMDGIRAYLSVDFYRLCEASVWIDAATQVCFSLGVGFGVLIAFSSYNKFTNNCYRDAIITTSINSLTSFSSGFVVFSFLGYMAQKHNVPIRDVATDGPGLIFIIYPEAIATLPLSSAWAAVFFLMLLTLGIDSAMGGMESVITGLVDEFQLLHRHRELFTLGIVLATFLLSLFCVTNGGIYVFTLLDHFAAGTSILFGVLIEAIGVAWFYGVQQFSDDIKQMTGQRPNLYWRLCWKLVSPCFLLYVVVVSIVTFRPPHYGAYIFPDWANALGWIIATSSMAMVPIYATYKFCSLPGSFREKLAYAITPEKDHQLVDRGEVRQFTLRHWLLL
- assay-details: Inhibition of DAT-mediated [3H]DA uptake in rat striatum
- Type: tissue-based
Threshold 80 nM: Ki strictly smaller gives Criterion met, otherwise Criterion not met.

Reference set (3 entries):
O=[N+]([O-])c1ccc(CN[C@@H]2CC[C@H](C(c3ccccc3)c3ccccc3)OC2)cc1    Criterion met
O[C@H]1C[C@H](C(c2ccccc2)c2ccccc2)OC[C@@H]1NCc1ccc2[nH]ccc2c1    Criterion not met
O[C@@H]1C[C@@H](C(c2ccccc2)c2ccccc2)OC[C@H]1NCc1ccccc1    Criterion not met

[Q] State whether 80 nM exceeds Ki recorded for Oc1ccc(CN[C@@H]2CC[C@H](C(c3ccccc3)c3ccccc3)OC2)cc1 .
[A] Criterion met

[Q] Is the reported Ki for c1ccc(C(c2ccccc2)[C@H]2CC[C@@H](NCc3ccc4[nH]ccc4c3)CO2)cc1 strictly below 80 nM?
[A] Criterion not met

[Q] Hi there! Is Ki for Oc1ccc(CN[C@H]2CC[C@@H](C(c3ccccc3)c3ccccc3)OC2)cc1 below 80 nM, do you know?
[A] Criterion not met

[Q] Given the entry O=[N+]([O-])c1ccc(CN[C@H]2CC[C@@H](C(c3ccccc3)c3ccccc3)OC2)cc1 , would its reported Ki be below 80 nM?
[A] Criterion met

[Q] Ki under 80 nM? Item: O[C@@H]1C[C@@H](C(c2ccccc2)c2ccccc2)OC[C@H]1NCc1ccc2[nH]ccc2c1
[A] Criterion not met

[Q] Bench note: check whether c1ccc(C(c2ccccc2)[C@@H]2CC[C@H](NCc3ccc4[nH]ccc4c3)CO2)cc1 shows Ki below 80 nM
[A] Criterion not met
